The reader will find IC50 measurements below, all made with sn-1-specific diacylglycerol lipase ABHD11 (Mus musculus) (UniProt Q8K4F5).
Sequence (Q8K4F5 whole entry, looked up): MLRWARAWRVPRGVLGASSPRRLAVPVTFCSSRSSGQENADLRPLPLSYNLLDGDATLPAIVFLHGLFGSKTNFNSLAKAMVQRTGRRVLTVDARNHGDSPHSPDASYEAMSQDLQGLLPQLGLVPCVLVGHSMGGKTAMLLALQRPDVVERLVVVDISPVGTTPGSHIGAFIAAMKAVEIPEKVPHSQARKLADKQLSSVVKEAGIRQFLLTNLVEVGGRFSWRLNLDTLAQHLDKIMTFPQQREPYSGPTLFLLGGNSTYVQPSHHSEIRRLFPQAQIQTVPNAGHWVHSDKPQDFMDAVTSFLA

**Q:** Could you tell me which IC50 is on file for COCC1CCCCN1C(=O)n1ncc(C(O)(c2ccccc2)c2ccccc2)n1 (configuration not stated) ?
**A:** 1 nM

**Q:** Could you tell me which IC50 is on file for CCC1CCCCN1C(=O)n1ncc(C(O)(c2ccccc2)c2ccccc2)n1 (configuration not stated) ?
**A:** 15 nM
